Let's look at some molecules and their measured IC50.
- System: U-251
- EXPERIMENT_DESCRIPTION: Cytotoxicity against human U251 cells assessed as inhibition of proliferation incubated for 72 hrs by MTT assay
- Type: functional, cell-based
- CONDITION_INFO: U-251, 72 h

Past entries and their recorded results:
CCOc1nc(C(=O)c2cc(OC)c(OC)c(OC)c2)nc2ccccc12 | 10.6 µM
C#CCn1c(C(=O)c2cc(OC)c(OC)c(OC)c2)nc2ccccc2c1=O | 12.8 µM
COc1ccc2c(=O)[nH]c(C(=O)c3cc(OC)c(OC)c(OC)c3)nc2c1 | 13.7 µM
COc1cc(C(=O)c2nc3cc(Br)ccc3c(=O)[nH]2)cc(OC)c1OC | > 100 µM

Alright, here's another molecule for you.
What value of measured IC50 is listed for `COc1cc(C(=O)c2nc3ccccc3c(=O)[nH]2)cc(OC)c1OC` ?
5.48 µM

###

- Tested on: HepG2
- EXPERIMENT_DESCRIPTION: Cytotoxicity against human HepG2 cells assessed as inhibition of proliferation incubated for 72 hrs by MTT assay
- Type: functional, cell-based
- CONDITION_INFO: HepG2, 72 h
Structures can show the parent of a compound that is named as a salt.
PROPERTY_NAME: pIC50
Just so you know, pIC50 here is -log10 of the concentration in molar units; reply with that number alone.

Past entries and their recorded results:
COc1cc(C(=O)c2nc3ccccc3c(=O)n2Cc2nnc(-c3ccco3)o2)cc(OC)c1OC | 5.12
COc1cc(C(=O)c2nc3cc(Br)ccc3c(=O)[nH]2)cc(OC)c1OC | 5.13
COc1cc(C(=O)c2nc(Cl)c3ccccc3n2)cc(OC)c1OC | 4.96
COc1cccc2c1C(=O)c1c(O)c3c(c(O)c1C2=O)C[C@@](O)(C(=O)CO)C[C@@H]3O[C@H]1C[C@H](N)[C@H](O)[C@H](C)O1 [DOXORUBICIN HYDROCHLORIDE] | 5.66

What value of measured pIC50 is listed for `COc1cc(C(=O)c2nc3ccccc3c(=O)n2Cc2nnc(-c3ccc(C)cc3)o2)cc(OC)c1OC` ?
4.98

What value of measured pIC50 is listed for `COc1cc(C(=O)c2nc3cccc(OC)c3c(=O)[nH]2)cc(OC)c1OC` ?
5.04

What value of measured pIC50 is listed for `C=CCn1c(C(=O)c2cc(OC)c(OC)c(OC)c2)nc2ccccc2c1=O` ?
4.85

###

- Test system: U-251
- EXPERIMENT_DESCRIPTION: Cytotoxicity against human U251 cells assessed as inhibition of proliferation incubated for 72 hrs by MTT assay
- Type: functional, cell-based
- CONDITION_INFO: U-251, 72 h
Where a name gives a salt, the structure may show the parent alone.
PROPERTY_NAME: IC50 (µM)
Only the number, expressed in µM, is required.

Past entries and their recorded results:
COc1cccc2c1C(=O)c1c(O)c3c(c(O)c1C2=O)C[C@@](O)(C(=O)CO)C[C@@H]3O[C@H]1C[C@H](N)[C@H](O)[C@H](C)O1 [DOXORUBICIN HYDROCHLORIDE] | 0.157
COc1cc(C(=O)c2nc3ccccc3c(=O)n2Cc2nnc(-c3ccc(C)cc3)o2)cc(OC)c1OC | 27
COc1cc(C(=O)c2nc3ccccc3c(=O)n2Cc2nnc(-c3ccco3)o2)cc(OC)c1OC | 15.9

Alright, here's another compound for you.
What value of measured IC50 is listed for `C=CCn1c(C(=O)c2cc(OC)c(OC)c(OC)c2)nc2ccccc2c1=O` ?
13

###

Let's look at some molecules and their measured IC50.
- System: A549
- EXPERIMENT_DESCRIPTION: Cytotoxicity against human A549 cells assessed as inhibition of proliferation incubated for 72 hrs by MTT assay
- Assay type: functional, cell-based
- CONDITION_INFO: A549, 72 h

Past entries and their recorded results:
COc1cc(C(=O)c2nc3cccc(OC)c3c(=O)[nH]2)cc(OC)c1OC | 15.4 µM
CCOc1nc(C(=O)c2cc(OC)c(OC)c(OC)c2)nc2ccccc12 | > 100 µM
COc1cc(C(=O)c2nc3ccccc3c(=O)n2C)cc(OC)c1OC | 20.3 µM
COc1cc(C(=O)c2nc3cc(Br)ccc3c(=O)[nH]2)cc(OC)c1OC | 7.27 µM
C#CCn1c(C(=O)c2cc(OC)c(OC)c(OC)c2)nc2ccccc2c1=O | 7.66 µM
COc1cc(C(=O)c2nc3ccccc3c(=O)n2Cc2nnc(-c3ccc(F)cc3)o2)cc(OC)c1OC | 7.66 µM
COc1cc(C(=O)c2nc3ccccc3c(=O)n2Cc2nnc(-c3ccco3)o2)cc(OC)c1OC | 4.62 µM

Alright, here's another molecule for you.
What value of measured IC50 is listed for `COc1cc(C(=O)c2nc3ccccc3c(=O)[nH]2)cc(OC)c1OC` ?
3.88 µM

###

- System: HepG2
- EXPERIMENT_DESCRIPTION: Cytotoxicity against human HepG2 cells assessed as inhibition of proliferation incubated for 72 hrs by MTT assay
- Assay type: functional, cell-based
- CONDITION_INFO: HepG2, 72 h
Strictly below 7 µM in IC50: MET. Otherwise: NOT MET.

Use these answered entries as a reference point.
CCOc1nc(C(=O)c2cc(OC)c(OC)c(OC)c2)nc2ccccc12 | NOT MET
O=C(c1ccc(F)cc1)c1nc2ccccc2c(=O)[nH]1 | NOT MET
COc1cc(C(=O)c2nc3ccccc3c(=O)n2C)cc(OC)c1OC | NOT MET
COc1ccc2c(=O)[nH]c(C(=O)c3cc(OC)c(OC)c(OC)c3)nc2c1 | NOT MET
C#CCn1c(C(=O)c2cc(OC)c(OC)c(OC)c2)nc2ccccc2c1=O | MET

Lab note: IC50 threshold 7 µM. Does this compound come in strictly under it? `COc1cc(C(=O)c2nc3ccccc3c(=O)[nH]2)cc(OC)c1OC`
MET

Lab note: IC50 threshold 7 µM. Does this compound come in strictly under it? `COc1ccc(C(=O)c2nc3ccccc3c(=O)[nH]2)cc1`
NOT MET

Lab note: IC50 threshold 7 µM. Does this compound come in strictly under it? `COc1ccccc1C(=O)c1nc2ccccc2c(=O)[nH]1`
NOT MET

Lab note: IC50 threshold 7 µM. Does this compound come in strictly under it? `O=C(c1nc2ccccc2c(=O)[nH]1)c1ccccc1C(F)(F)F`
NOT MET

Lab note: IC50 threshold 7 µM. Does this compound come in strictly under it? `COc1cc(C(=O)c2nc(OC(C)C)c3ccccc3n2)cc(OC)c1OC`
NOT MET

###

Let's look at some compounds and their measured IC50.
- Test system: U-251
- EXPERIMENT_DESCRIPTION: Cytotoxicity against human U251 cells assessed as inhibition of proliferation incubated for 72 hrs by MTT assay
- Type: functional, cell-based
- CONDITION_INFO: U-251, 72 h
Only the number, expressed in µM, is required.

COc1cc(C(=O)c2nc3cccc(OC)c3c(=O)[nH]2)cc(OC)c1OC | 19.2

Alright, here's another compound for you.
What value of measured IC50 is listed for `COc1cc(C(=O)c2nc3ccccc3c(=O)n2Cc2nnc(-c3ccc(F)cc3)o2)cc(OC)c1OC` ?
27.5

###

Let's look at some compounds and their measured pIC50.
- Tested on: A549
- EXPERIMENT_DESCRIPTION: Cytotoxicity against human A549 cells assessed as inhibition of proliferation incubated for 72 hrs by MTT assay
- Type: functional, cell-based
- CONDITION_INFO: A549, 72 h
Just so you know, pIC50 here is -log10 of the concentration in molar units; reply with that number alone.

What value of measured pIC50 is listed for `COc1cc(C(=O)c2nc(OC(C)C)c3ccccc3n2)cc(OC)c1OC` ?
5.14

What value of measured pIC50 is listed for `COc1cc(C(=O)c2nc3ccccc3c(=O)n2Cc2nnc(-c3ccc(C)cc3)o2)cc(OC)c1OC` ?
4.33

What value of measured pIC50 is listed for `C=CCn1c(C(=O)c2cc(OC)c(OC)c(OC)c2)nc2ccccc2c1=O` ?
4.98

What value of measured pIC50 is listed for `COc1cc(C(=O)c2nc(Cl)c3ccccc3n2)cc(OC)c1OC` ?
5.15

What value of measured pIC50 is listed for `COc1ccc2c(=O)[nH]c(C(=O)c3cc(OC)c(OC)c(OC)c3)nc2c1` ?
4.90

###

- EXPERIMENT_DESCRIPTION: Selectivity index, ratio of IC50 for human LO2 cells to IC50 for human HepG2 cells
- Assay type: toxicity
- CONDITION_INFO: LO2 cells versus HepG2 cells, read-out: Selectivity Index
PROPERTY_NAME: selectivity ratio

What value of measured selectivity ratio is listed for `COc1cc(C(=O)c2nc3ccccc3c(=O)[nH]2)cc(OC)c1OC` ?
4.9

Hey, just so you know, these numbers are from ChEMBL document CHEMBL4842335.
